Study system: alpha2B receptor (Homo sapiens)
Construct: expressed in transfected cells; host or cells: NIH-3T3
Sequence (P18089 whole entry): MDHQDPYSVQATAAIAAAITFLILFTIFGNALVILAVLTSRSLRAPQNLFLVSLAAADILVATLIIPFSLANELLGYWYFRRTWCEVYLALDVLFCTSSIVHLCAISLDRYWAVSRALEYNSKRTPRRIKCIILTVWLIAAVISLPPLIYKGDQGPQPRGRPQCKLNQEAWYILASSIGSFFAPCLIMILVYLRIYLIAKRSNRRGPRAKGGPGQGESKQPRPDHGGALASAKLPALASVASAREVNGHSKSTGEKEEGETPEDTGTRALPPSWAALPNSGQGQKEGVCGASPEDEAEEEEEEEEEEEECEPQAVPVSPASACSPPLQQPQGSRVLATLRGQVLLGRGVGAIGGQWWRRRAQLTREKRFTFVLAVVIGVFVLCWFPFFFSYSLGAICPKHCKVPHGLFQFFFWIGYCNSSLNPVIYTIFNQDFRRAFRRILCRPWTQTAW
Protocol summary: RSAT assay, alpha 2B
Type: cell-based
Stated conditions: RSAT; ratio of maximal effect to standard full agonist brimonidine (UK14304)
Recorded (rel. efficacy) Alpha 2B, one value per entry.

In the examples that follow, each entry is paired with its recorded (rel. efficacy) Alpha 2B.
Fc1c(CNC2=NCCS2)cccc1C(F)(F)F : 0.99
Clc1cccc(CNC2=NCCO2)c1Cl : 1.05
COc1ccc(Cl)cc1CNC1=NCCS1 : 0.85
Fc1cccc(CNC2=NCCO2)c1 : 0.82
Clc1cccc(CNC2=NCCS2)c1Cl : 0.94

Q: Item under review: Clc1c(Br)cccc1CNC1=NCCS1 . Reported (rel. efficacy) Alpha 2B?
Ans: 1.01

Q: Item under review: Cc1cc(Cl)cc(CNC2=NCCS2)c1F . Reported (rel. efficacy) Alpha 2B?
Ans: 0.96

Q: Item under review: FC(F)(F)c1ccccc1CNC1=NCCO1 . Reported (rel. efficacy) Alpha 2B?
Ans: 0.97
